method summary: Micafungin plasma pharmacokinetics in neonates and young infants (HPLC)
Type: in vivo, human
cond: human, iv, 7 mg/kg/day, Patient 1, dose 7 mg/kg/day iv, HPLC, read-out: Plasma values after 1 h
*1 amine or outer side, *2 acyl side, *3 side chain or, on linkers, in order; H or OH if unused. Where a SMILES comes first, the peptide text is derived from it. Bridges are numbered along the chain shown (N, C = ends). [ ]: non-standard residue; d: D form. The star is where a group is joined. hTyr(3S-OH,4S-OH,3'-OSO3H) = N[C@H](C(=O)O)[C@H](O)[C@@H](O)c1ccc(O)c(OS(=O)(=O)O)c1; Orn(4R-OH,5R-OH) = O=C([C@H](C[C@@H](O)[C@@H](O)N[*:3])N[*:1])[*:2]; Pro(3S-OH,4S-Me) = C[C@H]1CN[C@H](C(=O)O)[C@H]1O; X1 = CCCCCOc1ccc(-c2cc(-c3ccc(C(=O)*)cc3)no2)cc1; Gln(3R-OH) = NC(=O)C[C@@H](O)[C@H](N)C(=O)O; Hyp = O=C(O)[C@@H]1C[C@@H](O)CN1
property label: level at 1 h (ng/mL)

molecule="CCCCCOc1ccc(-c2cc(-c3ccc(C(=O)N[C@H]4C[C@@H](O)[C@@H](O)NC(=O)[C@@H]5[C@@H](O)[C@@H](C)CN5C(=O)[C@H]([C@H](O)CC(N)=O)NC(=O)[C@H]([C@H](O)[C@@H](O)c5ccc(O)c(OS(=O)(=O)O)c5)NC(=O)[C@@H]5C[C@@H](O)CN5C(=O)[C@H]([C@@H](C)O)NC4=O)cc3)no2)cc1 [micafungin] (X1-[Orn(4R-OH,5R-OH)]T[Hyp][hTyr(3S-OH,4S-OH,3'-OSO3H)][Gln(3R-OH)][Pro(3S-OH,4S-Me)]; lactam 1-C)" endpoint_result=15600

---

method summary: Micafungin concentrations in cerebrospinal fluid of infants with Candida meningitis (HPLC)
Type: in vivo
cond: human, cerebrospinal fluid, iv, 10 mg/kg/day, Patient 1, dose 10 mg/kg/day iv; HPLC; read-out: CSF values after 8 h
Method: Micafungin plasma and CSF concentrations were measured 1 h before and 1, 2, and 8 h after the end of the infusion. Sampling overlapped with those required for the clinical monitoring of these critical children. […] Blood picked up was centrifuged at 3000× g, and the plasma residue was stored at 4 °C until analyzed within 6 h or frozen at −20 °C and analyzed within 7 days, as previously reported. Drug concentrations were measured via high-performance liquid chromatography (HPLC). […]
*1 amine or outer side, *2 acyl side, *3 side chain or, on linkers, in order; H or OH if unused. Where a SMILES comes first, the peptide text is derived from it. Bridges are numbered along the chain shown (N, C = ends). [ ]: non-standard residue; d: D form. The star is where a group is joined. hTyr(3S-OH,4S-OH,3'-OSO3H) = N[C@H](C(=O)O)[C@H](O)[C@@H](O)c1ccc(O)c(OS(=O)(=O)O)c1; Orn(4R-OH,5R-OH) = O=C([C@H](C[C@@H](O)[C@@H](O)N[*:3])N[*:1])[*:2]; Pro(3S-OH,4S-Me) = C[C@H]1CN[C@H](C(=O)O)[C@H]1O; X1 = CCCCCOc1ccc(-c2cc(-c3ccc(C(=O)*)cc3)no2)cc1; Gln(3R-OH) = NC(=O)C[C@@H](O)[C@H](N)C(=O)O; Hyp = O=C(O)[C@@H]1C[C@@H](O)CN1
property label: level at 8 h (ng/mL)

compound="CCCCCOc1ccc(-c2cc(-c3ccc(C(=O)N[C@H]4C[C@@H](O)[C@@H](O)NC(=O)[C@@H]5[C@@H](O)[C@@H](C)CN5C(=O)[C@H]([C@H](O)CC(N)=O)NC(=O)[C@H]([C@H](O)[C@@H](O)c5ccc(O)c(OS(=O)(=O)O)c5)NC(=O)[C@@H]5C[C@@H](O)CN5C(=O)[C@H]([C@@H](C)O)NC4=O)cc3)no2)cc1 [micafungin] (X1-[Orn(4R-OH,5R-OH)]T[Hyp][hTyr(3S-OH,4S-OH,3'-OSO3H)][Gln(3R-OH)][Pro(3S-OH,4S-Me)]; lactam 1-C)" endpoint_result=1230
